- PROTOCOL_SUMMARY: Cmax in rat at 3 mg/kg, po measured after 12 hrs
- Assay type: ADME, organism-based
- Set-up: dose 3 mg/kg, time 12 hrs, route po
- CONDITION_LABEL: in vivo
OBSERVED_PROPERTY: Cmax (nM)

1. C[C@H]1CCN1c1nc(-c2cnn(CC(=O)NCCO)c2)cc(C(F)(F)F)c1C#N
2. OC[C@H]1CCN1c1nc(-c2cnn(C3CCNCC3)c2)cc(C(F)(F)F)n1
Larger number for Cmax: 1 , or 2 ? Please indicate the selected item by its label.
1
(1: 827 nM, 2: 424 nM)

---

- PROTOCOL_SUMMARY: AUC in dog at 3 mg/kg, po
- Format: ADME, organism-based, Canis lupus familiaris
- Parameters: dose 3 mg/kg, route po
- CONDITION_LABEL: in vivo
OBSERVED_PROPERTY: AUC (µM·h)
# number only, unit µM·h dropped from output

Fill in the blank: the reported AUC of OC[C@H]1CCN1c1nc(-c2cnn(C3CCNCC3)c2)cc(C(F)(F)F)n1 is ____.
10.3
